Values from patent US20240360228A1

Biological target: T1, human CCR8 (human, UniProt P51685 1-355)
T1 construct: Native CCR8 on human PBMC (CCR8+ CD3+ or CCR8+ CD4+ lymphocytes); also called chemokine (C-C motif) receptor 8
T1 sequence (P51685 whole entry): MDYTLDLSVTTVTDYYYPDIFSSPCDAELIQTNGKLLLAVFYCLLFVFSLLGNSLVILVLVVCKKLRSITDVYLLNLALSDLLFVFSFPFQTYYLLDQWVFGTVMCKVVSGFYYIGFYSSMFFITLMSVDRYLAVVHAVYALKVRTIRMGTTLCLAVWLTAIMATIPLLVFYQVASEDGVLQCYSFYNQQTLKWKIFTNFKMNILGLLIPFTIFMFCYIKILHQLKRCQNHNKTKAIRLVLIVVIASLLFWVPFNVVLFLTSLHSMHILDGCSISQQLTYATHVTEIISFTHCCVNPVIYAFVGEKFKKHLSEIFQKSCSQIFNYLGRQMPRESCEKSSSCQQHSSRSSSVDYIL
Assay: flow blocking, PBMC CCR8+CD4+; competitor PE-AB13
So I've got a bunch of binders here, and I need their % Positive cells values.
Answers are plain numbers, in %.

BINDER	% Positive cells / %
AB12 (antibody, V domains shown, Hybridoma monoclonal; also called antibody 12; clone 12) VH: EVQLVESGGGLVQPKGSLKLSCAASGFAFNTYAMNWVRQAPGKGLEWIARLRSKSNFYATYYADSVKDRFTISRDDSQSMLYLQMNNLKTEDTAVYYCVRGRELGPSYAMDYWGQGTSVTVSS VL: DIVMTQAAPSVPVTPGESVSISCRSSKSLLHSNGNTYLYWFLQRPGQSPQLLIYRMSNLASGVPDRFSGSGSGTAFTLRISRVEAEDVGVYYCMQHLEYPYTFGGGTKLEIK	0.03
AB8 (antibody, V domains shown, Hybridoma monoclonal; also called antibody 8; clone 8) VH: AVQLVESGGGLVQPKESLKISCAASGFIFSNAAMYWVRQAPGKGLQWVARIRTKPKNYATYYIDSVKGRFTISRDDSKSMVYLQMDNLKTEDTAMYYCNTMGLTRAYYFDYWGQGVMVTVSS VL: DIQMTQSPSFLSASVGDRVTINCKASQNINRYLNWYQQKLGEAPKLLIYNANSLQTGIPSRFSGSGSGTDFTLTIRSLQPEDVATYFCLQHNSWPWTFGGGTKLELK	0.13
AB4 (antibody, V domains shown, Hybridoma monoclonal; also called antibody 4; clone 4) VH: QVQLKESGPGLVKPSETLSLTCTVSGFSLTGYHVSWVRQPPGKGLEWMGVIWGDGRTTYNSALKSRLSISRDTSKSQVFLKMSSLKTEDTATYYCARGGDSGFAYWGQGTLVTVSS VL: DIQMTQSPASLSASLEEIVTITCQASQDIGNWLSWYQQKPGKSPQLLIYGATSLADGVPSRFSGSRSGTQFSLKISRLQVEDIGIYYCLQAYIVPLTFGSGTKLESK	1.55
AB5 (antibody, V domains shown, Hybridoma monoclonal; Same VH/VL entries as AB6; also called antibody 5; clone 5) VH: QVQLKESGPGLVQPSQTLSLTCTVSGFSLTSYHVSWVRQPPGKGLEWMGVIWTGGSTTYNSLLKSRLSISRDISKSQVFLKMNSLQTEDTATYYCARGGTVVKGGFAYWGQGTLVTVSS VL: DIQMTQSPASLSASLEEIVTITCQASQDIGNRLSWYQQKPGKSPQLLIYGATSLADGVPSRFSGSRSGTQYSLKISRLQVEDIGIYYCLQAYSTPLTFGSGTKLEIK	1.43

Now for a further binder.
Enquiry: Would you mind telling me what % Positive cells value was observed for AB15 (antibody, V domains shown, Hybridoma monoclonal; Same VH/VL entries as AB14; also called antibody 15; clone 15) VH: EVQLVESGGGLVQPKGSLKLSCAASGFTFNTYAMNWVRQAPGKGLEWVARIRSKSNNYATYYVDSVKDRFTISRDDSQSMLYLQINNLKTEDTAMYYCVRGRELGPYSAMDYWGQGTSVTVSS VL: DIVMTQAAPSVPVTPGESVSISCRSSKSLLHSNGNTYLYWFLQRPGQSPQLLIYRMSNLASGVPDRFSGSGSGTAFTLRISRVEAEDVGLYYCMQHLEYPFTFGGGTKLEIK ?
Return: 0.16
